test system: Enterobacter cloacae; test: Antimicrobial activity against Enterobacter cloacae isolate 37 expressing aac(6')-Ib-cr gene; type: functional
Give measured MIC for each item. Keep answers brief.
Entry rule: numbers only, all in µg/mL.

Inquiry: Give MIC for CC(C)(O/N=C(\C(=O)N[C@@H]1C(=O)N2C(C(=O)[O-])=C(C[n+]3ccccc3)CS[C@H]12)c1csc(N)n1)C(=O)O [CEFTAZIDIME] tested on Enterobacter cloacae.
Reply text: 8

Inquiry: // output MIC; input CO/N=C(\C(=O)N[C@@H]1C(=O)N2C(C(=O)O)=C(COC(C)=O)CS[C@H]12)c1csc(N)n1 [CEFOTAXIME] ; system Enterobacter cloacae
Reply text: 128
